target: Nuclear receptor ROR-gamma (Homo sapiens, UniProt P51449)
Sequence (P51449 whole entry): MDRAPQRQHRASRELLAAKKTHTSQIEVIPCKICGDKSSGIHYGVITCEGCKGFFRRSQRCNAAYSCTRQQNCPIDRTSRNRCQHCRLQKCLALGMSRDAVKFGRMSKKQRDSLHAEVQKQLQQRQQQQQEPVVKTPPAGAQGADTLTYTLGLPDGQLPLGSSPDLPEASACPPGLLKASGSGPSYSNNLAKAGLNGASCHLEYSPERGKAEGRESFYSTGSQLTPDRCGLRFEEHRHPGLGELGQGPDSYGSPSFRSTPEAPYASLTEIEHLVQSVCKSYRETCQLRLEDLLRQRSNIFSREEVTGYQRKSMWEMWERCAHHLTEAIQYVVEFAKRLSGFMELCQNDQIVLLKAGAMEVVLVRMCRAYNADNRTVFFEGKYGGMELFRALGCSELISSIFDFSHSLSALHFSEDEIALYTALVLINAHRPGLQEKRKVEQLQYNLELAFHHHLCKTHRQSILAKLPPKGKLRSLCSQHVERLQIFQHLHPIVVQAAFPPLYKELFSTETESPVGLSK
OBSERVED_PROPERTY: IC50 (nM)
Answers are plain numbers, in nM.

[in] Form field: reported IC50 of Cc1ccc([C@@H](NC(=O)Cc2ccc3oc(C(O)c4c(C)noc4C)cc3c2)c2ccccc2)c(C)c1 (stereo partly specified)
[out] 5

These entries and their values trace back to ChEMBL document CHEMBL5223085.
